Source of measurements: PubChem BioAssay (NCI)

# Test system: SR leukemia
# Protocol Text: NCI-60 one-dose screen, 48 h (100 = growth as untreated, 0 = no growth, -100 = all killed)
# Recorded Conditions: 10 µM unless noted
The panel holds about 83,000 compounds, 20% with a hit somewhere; the sample as a whole holds those more often.
Decision: growth compared against 80%; not below it gives true, below it gives false.

Threshold query (growth >= 80%) on O=[N+]([O-])c1cc(Br)c(O)c(Br)c1 true

Threshold query (growth >= 80%) on O=C(CCCN1CCC2(CC1)C(=O)NCN2c1ccccc1)c1ccc(F)cc1 true

Threshold query (growth >= 80%) on Cc1ccc(NC2=N[C@]34CC(=O)CC[C@]3(C)[C@H]3CC[C@]5(C)C(=O)CC[C@H]5[C@@H]3C[C@@H]4S2)c(C)c1 false

Threshold query (growth >= 80%) on CC[C@H](C)[C@H](NC(=O)c1ncccn1)C(=O)N(C)[C@H](C[C@@H](OC(C)=O)c1nc(C(=O)N[C@@H](Cc2ccccc2)C[C@H](C)C(=O)OC)cs1)C(C)C false

Threshold query (growth >= 80%) on Cc1c2ccncc2c(C)c2c1[nH]c1ccccc12 false

Threshold query (growth >= 80%) on CCCC1CCCCC12C(=O)NC(=O)NC2=O (configuration not stated) true

Threshold query (growth >= 80%) on Cc1c(C)c(N)c(C)c(C)c1N false

Threshold query (growth >= 80%) on Cc1ccccc1-n1c(/C=C\c2ccccn2)nc2ccccc2c1=O false

Threshold query (growth >= 80%) on CC/C(Cc1ccccc1)=C(\c1ccc(OCCN2CCCC2)cc1)c1ccc(OC(=O)NCc2ccccc2)cc1 false

Threshold query (growth >= 80%) on CC[C@H](C)[C@H](NC(=O)[C@H]1CCCCN1C)C(=O)N(C)[C@H](C[C@@H](OC(C)=O)c1nc(C(=O)N[C@@H](Cc2ccccc2)C[C@H](C)C(=O)O)cs1)C(C)C false

Threshold query (growth >= 80%) on CC(=O)C(N)Cc1ccccc1 (configuration not stated) true

Threshold query (growth >= 80%) on CCCCn1c(=O)c(C(=O)NCc2ccccc2Cl)c(O)c2ccccc21 false

Threshold query (growth >= 80%) on C/C(=N/OC(=O)N(C)C)c1ccc(Cl)c(Cl)c1 false

Threshold query (growth >= 80%) on O=C1CCCCC1CN1CCCCC1 (configuration not stated) true

Threshold query (growth >= 80%) on CN(C)c1ccc(C=C2C(=O)NC(=O)NC2=O)cc1 true

Threshold query (growth >= 80%) on CC(C)CCC1C(=O)NC(=O)NC1=O true

Threshold query (growth >= 80%) on O=C(O)c1ccccc1N(CCO)CCCl true

Threshold query (growth >= 80%) on COc1ccn(C)c(=O)c1C#N true

Threshold query (growth >= 80%) on CCCCS(=O)(=O)Cl true

Threshold query (growth >= 80%) on CC(Oc1ccc(-c2ccccc2)cc1)C(=O)O (configuration not stated) true

Threshold query (growth >= 80%) on COC(=O)C1=CO[C@@H](C)[C@@H]2CN3CCc4c([nH]c5cc(OC)ccc45)[C@@H]3C[C@H]12 true

Threshold query (growth >= 80%) on CNC(=O)Oc1ccc(Cl)cc1SSc1cc(Cl)ccc1OC(=O)NC false

Threshold query (growth >= 80%) on Cn1cc(-c2csc(-c3cn(CCCCN4CCOCC4)c4ccc(F)cc34)n2)c2cccnc21 false

Threshold query (growth >= 80%) on O=C(O)C(F)F true

Threshold query (growth >= 80%) on Cc1nc2ccccc2c(=O)n1-c1ccccc1F true

Threshold query (growth >= 80%) on CC(=O)OC1CC2(O)C(CCC3(C)C(c4ccc(=O)oc4)CCC32O)C2(C)CCC(OC3OC(CO)C(O)C(O)C3O)C=C12 (configuration not stated) false

Threshold query (growth >= 80%) on Nc1ccc(S(=O)(=O)F)cc1 true

Threshold query (growth >= 80%) on C/C=C(/C)C(=O)O[C@H]1CC[C@@]2(C)[C@@H]3CC[C@H]4[C@]5(O)C[C@H](O)[C@@]6(O)[C@@H](CN7C[C@@H](C)CC[C@H]7[C@@]6(C)O)[C@]5(O)C[C@@]42O[C@@]13O true

Threshold query (growth >= 80%) on CC1(C)S[C@H]2CC[C@H]3OC(=O)[C@@H]1N23 true

Threshold query (growth >= 80%) on COc1cc(/C=C\[N+](=O)[O-])ccc1OCc1ccccc1 false

Threshold query (growth >= 80%) on CCC1(NC(=O)c2cc(F)c(F)c(F)c2F)C(=O)NC(=O)N(C(C)C)C1=O (configuration not stated) false

Threshold query (growth >= 80%) on CC1=C2[C@H]3OC(=O)[C@@H](C)[C@@H]3CC[C@@]2(C)C=CC1=O true
